Source listed as patent US20260262643A1.

Tested on: oat, wild
Experiment: Test A postemergence
Type: in vivo, Avena fatua
Settings: 500 g ai/ha, postemergence, 10 days, visual injury, 0 to 100 scale (0 no effect, 100 complete control)
Response field label: string, one of 1 (Plant response rating, Oat, Wild strictly below 70) or 0.

Q) Lab note: Plant response rating, Oat, Wild threshold 70. Does this compound come in strictly under it? CCCCc1ncn(-c2cccc(C(=O)N3C[C@H](C)Oc4c(C)cccc43)c2)n1
A) 1

Q) Quick one: CC(C)c1ncn(-c2cccc(C(=O)N3C[C@H](C)Oc4c(Cl)cccc43)c2)n1
A) 0

Q) Quick one: C[C@H]1CN(C(=O)c2cccc(-n3cnc(CC4CCCCC4)n3)c2)c2cccc(Cl)c2O1
A) 1

Q) Quick one: CCCc1ncn(-c2cccc(C(=O)N3C[C@H](C)Oc4c(C)cccc43)c2)n1
A) 1

Q) Quick one: Cc1cccc2c1OC(C(F)(F)F)CN2C(=O)c1ccnc(-n2cncn2)c1 (centres unmarked)
A) 1

Q) Quick one: CCc1ncn(-c2ccc(CC)c(C(=O)N3C[C@H](C)Oc4c(Cl)cccc43)c2)n1
A) 0

Q) Quick one: CCc1ccc(-n2cnc(C(C)(C)C)n2)cc1C(=O)N1C[C@H](C)Oc2c(Cl)cccc21
A) 1

* * *

Tested on: ragweed
Experiment: Test A postemergence
Format: in vivo, Ambrosia artemisiifolia
Conditions: 500 g ai/ha, postemergence, 10 days, visual injury, 0 to 100 scale (0 no effect, 100 complete control)
Please provide measured Plant response rating, Ragweed for the entries that follow.
Provide a numeric answer; units are not to be included.

Q) Looking for the measured Plant response rating, Ragweed of Cc1ccc(-n2cnc(C(C)(C)C)n2)cc1C(=O)N1C[C@H](C)Oc2c(C)cccc21 , can you help?
A) 70

Q) Quick one: C[C@H]1CN(C(=O)c2cccc(-n3cnc(Br)n3)c2)c2cccc(Cl)c2O1
A) 20

Q) Quick one: CCc1ccc(-n2cnc(C3CCC3)n2)cc1C(=O)N1C[C@H](C)Oc2c(Cl)cccc21
A) 30

Q) Quick one: C=CCOc1ccc(-n2cnc(C(C)C)n2)cc1C(=O)N1C[C@H](C)Oc2c(Cl)cccc21
A) 60

Q) Quick one: Cc1cccc2c1O[C@@H](C)CN2C(=O)c1cccc(-n2cnc(COC(C)C)n2)c1
A) 30

Q) Quick one: Cc1cccc2c1O[C@@H](C)CN2C(=O)c1cccc(-n2cnc(C3CCCCC3)n2)c1
A) 50

Q) Quick one: Cc1cccc2c1OC(C(F)(F)F)CN2C(=O)c1ccnc(-n2cncn2)c1 (stereo not drawn)
A) 0

Q) Quick one: COc1cc(C(=O)N2C[C@H](C)Oc3c(Cl)cccc32)cc(-n2cncn2)c1
A) 40

Q) Quick one: CCc1ccc(-n2cnc(C(C)(C)C)n2)cc1C(=O)N1C[C@H](C)Oc2c(Cl)cccc21
A) 40

Q) Quick one: CC(C)c1ncn(-c2cc(C(=O)N3C[C@H](C)Oc4c(Cl)cccc43)c3ccccc3c2)n1
A) 10

Q) Quick one: Cc1cccc2c1O[C@@H](C)CN2C(=O)c1cccc(-n2cnc(Cl)n2)c1
A) 30

Q) Quick one: Cc1ccc(-n2cnc(C3CC3)n2)cc1C(=O)N1C[C@H](C)Oc2c(Cl)cccc21
A) 70

* * *

Please provide measured Plant response rating, Ryegrass, Italian for the entries that follow.
Tested on: ryegrass, Italian
Test: Test A preemergence
Type: in vivo, Lolium multiflorum
Settings: 500 g ai/ha, 0 to 100 scale (0 no effect, 100 complete control), 10 days
Provide a numeric answer; units are not to be included.

Q) Looking for the measured Plant response rating, Ryegrass, Italian of Cc1ccc(-n2cncn2)cc1C(=O)N1C[C@H](C)Oc2c(C)cccc21 [Compound 57] , can you help?
A) 100

Q) Quick one: C[C@H]1CN(C(=O)c2cccc(-n3cncn3)c2)c2cccc(C(F)(F)F)c2O1 [Compound 47]
A) 90

Q) Quick one: CCc1cccc2c1OC(C)CN2C(=O)c1cccc(-n2cncn2)c1 (stereo not drawn) [Compound 43]
A) 90

Q) Quick one: CC1CN(C(=O)c2cccc(-n3cncn3)c2)c2c(F)cccc2O1 (stereo not drawn) [Compound 28]
A) 90

Q) Quick one: Cc1ncn(-c2cccc(C(=O)N3C[C@H](C)Oc4c(C)cccc43)c2)n1 [Compound 51]
A) 100

Q) Quick one: Cc1cccc2c1O[C@@H](C)CN2C(=O)c1cccc(-n2cnc(C3CC3)n2)c1 [Compound 54]
A) 100

Q) Quick one: C[C@H]1CN(C(=O)c2cc(-n3cncn3)ccc2C(F)(F)F)c2cccc(Cl)c2O1 [Compound 70]
A) 90

Q) Quick one: CC1CN(C(=O)c2cc(-n3cncn3)ccc2F)c2cccc(Cl)c2O1 (stereo not drawn) [Compound 39]
A) 100

Q) Quick one: Cc1cccc2c1O[C@@H](C)CN2C(=O)c1cccc(-n2cnc(C(C)C)n2)c1 [Compound 55]
A) 100

Q) Quick one: CCCc1ncn(-c2cccc(C(=O)N3C[C@H](C)Oc4c(C)cccc43)c2)n1 [Compound 72]
A) 100

Q) Quick one: Cc1cccc2c1O[C@@H](C)CN2C(=O)c1cccc(-n2cnc(C(C)(C)C)n2)c1 [Compound 65]
A) 100

Q) Quick one: CC1CN(C(=O)c2cccc(-n3cncn3)c2)c2cccc(C3CC3)c2O1 (stereo not drawn) [Compound 42]
A) 100

* * *

Please provide measured Ryegrass, Italian plant response rating for the entries that follow.
Test system: ryegrass, Italian
Experiment: Test C preemergence
Format: in vivo, Lolium multiflorum
Details: Test C, preemergence, 125 g ai/ha; 0 to 100 scale (0 no effect, 100 complete control)
Provide a numeric answer; units are not to be included.

Q) Looking for the measured Ryegrass, Italian plant response rating of Cc1ccc(-n2cnc(C(C)C)n2)cc1C(=O)N1CC(C(F)(F)F)Oc2c(Cl)cccc21 (single isomer, unassigned) , can you help?
A) 90

Q) Quick one: CC(C)c1ncn(-c2cc(C(=O)N3C[C@H](C)Oc4c(Cl)cccc43)cnn2)n1
A) 60

Q) Quick one: CC(C)c1ncn(-c2cccc(C(=O)N3CC(C(F)(F)F)Oc4c(Cl)cccc43)c2)n1 (single isomer, unassigned)
A) 100

Q) Quick one: Cc1cccc2c1O[C@@H](C)CN2C(=O)c1cc(-n2cnc(C(C)C)n2)cc2ccoc12
A) 90

Q) Quick one: Cc1ccc(-n2cnc(C(C)(C)C)n2)cc1C(=O)N1CC(C(F)(F)F)Oc2c(Cl)cccc21 (single isomer, unassigned)
A) 90

Q) Quick one: COc1cc(-n2cnc(C(C)C)n2)cc(C(=O)N2C[C@H](C)Oc3c(Cl)cccc32)c1OC
A) 70

Q) Quick one: Cc1cccc2c1O[C@@H](C)CN2C(=O)c1cccc(-n2nccn2)c1
A) 0

* * *

Please provide measured Soybean plant response rating for the entries that follow.
Tested on: soybean
Assay: Test C preemergence
Type: in vivo, Glycine max
Conditions: Test C, preemergence, 125 g ai/ha; 0 to 100 scale (0 no effect, 100 complete control)
Provide a numeric answer; units are not to be included.

Q) Looking for the measured Soybean plant response rating of COc1cc(C(=O)N2C[C@H](C)Oc3c(Cl)cccc32)cc(-n2cnc(C3CCC3)n2)c1 , can you help?
A) 30

Q) Quick one: CCOCc1ncn(-c2ccc(C)c(C(=O)N3C[C@H](C)Oc4c(Cl)cccc43)c2)n1
A) 20

Q) Quick one: Cc1cccc2c1O[C@H](C)CN2C(=O)c1cccc(-c2ncn(C(C)C)n2)c1
A) 0

Q) Quick one: COc1cc(C(=O)N2C[C@H](C)Oc3c(Cl)cccc32)cc(-n2cnc(C(C)C)n2)c1
A) 90

Q) Quick one: COc1ccc(-n2cncn2)cc1C(=O)N1C[C@H](C)Oc2ccccc21
A) 70

Q) Quick one: Cc1cccc2c1O[C@@H](C)CN2C(=O)c1cccc(-n2cnc(-c3ccccc3)n2)c1
A) 0

Q) Quick one: CCc1c(C)cc(-n2cnc(C(C)C)n2)cc1C(=O)N1C[C@H](C)Oc2c(Cl)cccc21
A) 0

Q) Quick one: Cc1cccc2c1O[C@@H](C)CN2C(=O)c1cccc(-n2cnc(N)n2)c1
A) 0

Q) Quick one: CCc1ncn(-c2ccc(OC)c(C(=O)N3C[C@H](COC)Oc4c(Cl)cccc43)c2)n1
A) 60

Q) Quick one: CCc1ncn(-c2ccc(OC)c(C(=S)N3C[C@H](C)Oc4c(C)cccc43)c2)n1
A) 70

Q) Quick one: COC[C@H]1CN(C(=O)c2cc(-n3cnc(C(C)(C)C)n3)ccc2OC)c2cccc(Cl)c2O1
A) 90

Q) Quick one: Cc1ccc(-n2cnc(C(C)C)n2)cc1C(=O)N1C[C@H](C)Oc2c1cccc2C(F)(F)F
A) 70

Q) Quick one: CC(C)c1ncn(-c2cc3c(c(C(=O)N4C[C@H](C)Oc5c(Cl)cccc54)c2)OCCCO3)n1
A) 50

Q) Quick one: Cc1ccc(-n2cnc(C(C)C)n2)cc1C(=O)N1C[C@H](C)Oc2c(F)cccc21
A) 90

Q) Quick one: CCn1cnc(-c2cccc(C(=O)N3C[C@H](C)Oc4c(C)cccc43)c2)n1
A) 0

Q) Quick one: CCc1ccc(-n2cnc(C(C)(C)O)n2)cc1C(=O)N1C[C@H](C)Oc2c(C)cccc21
A) 90
